- assay-info: in vitro
- assay-context: human, hek293t cells
Mark each entry 1 if its viability at 48 h, 25 µM sits below 90%, and -1 for all others.

Answered examples (5):
O=C1C=CC(=O)N1c1ccc(OC(F)F)cc1 ... -1
CC(Cl)C(=O)N1CCn2c(cc3c(Cl)cccc32)C1 (stereo not drawn) ... 1
Cc1cc(C)c(CCNC(=O)CCl)c(C)c1 ... 1
N#CC(=Cc1ccc(O)cc1)C(=O)Nc1cc(Cl)ccc1Cl ... 1
C=CC(=O)NC(C)Cn1cc(C(=O)O)cn1 (stereo not drawn) ... -1

Next up:
input: I wonder whether "C=CC(=O)N1CCC[C@H]1c1ccon1" has viability at 48 h, 25 µM below 90%. Can you tell?
output: -1

----------
- assay-info: in vitro
- assay-context: human, hek293t cells
Mark each entry fulfilled if its viability at 48 h, 25 µM sits below 80%, and not fulfilled for all others.

CCOC(=O)c1c(C)[nH]c(C(=O)CCl)c1C ... fulfilled
O=C1C=CC(=O)N1CCc1ccccc1F ... fulfilled
CCOC(=O)c1c(NC(=O)C(C)Cl)sc2c1CCC(C)C2 (centres unmarked) ... not fulfilled
CC(Cl)C(=O)N1CCNC(=O)C1Cc1nc2ccccc2o1 (centres unmarked) ... not fulfilled
O=C1C=CC(=O)N1c1cc([N+](=O)[O-])ccc1Cl ... not fulfilled

Next up:
input: I wonder whether CC(Cl)C(=O)Nc1cc(F)ccc1F (centres unmarked) has viability at 48 h, 25 µM below 80%. Can you tell?
output: not fulfilled

----------
Listing of recorded viability at 48 h, 25 µM by entry.
- assay-info: in vitro
- assay-context: human, hek293t cells

input: Looking for the measured viability at 48 h, 25 µM of C=CC(=O)N1CCOC(CNC(=O)NC)C1 (centres unmarked) , can you help?
output: 93.3%

----------
Listing of recorded viability at 48 h, 25 µM by entry.
- assay-info: in vitro
- assay-context: human, hek293t cells
Answer with a number only, understood to be in %.

Recorded results for 3 compounds are shown here.
N#CC(=Cc1ccc(N2CCOCC2)cc1)C(=O)NCC1CCCO1 (centres unmarked) ... 120
C=CC(=O)N(C)CC(=O)N1CCCCC1c1nc(C)c(C)s1 (centres unmarked) ... 116
N#CC(=Cc1ccc(O)c(O)c1)C(=O)Nc1ccccc1F ... 92.9

input: Looking for the measured viability at 48 h, 25 µM of CC(Cl)C(=O)NC1CCCCCC1 (centres unmarked) [5-O21, 2-chloro-N-cycloheptylpropanamide] , can you help?
output: 105

input: Looking for the measured viability at 48 h, 25 µM of CC(Cl)C(=O)Nc1ccc(OC(F)F)c(Cl)c1 (centres unmarked) , can you help?
output: 91.5

----------
- assay-info: in vitro
- assay-context: human, hek293t cells
recorded-endpoint: viability at 48 h, 25 µM (%)
Answer with a number only, understood to be in %.

Recorded results for 2 compounds are shown here.
C=CC(=O)N1CCC(C(=O)NOC2CCCC2)(c2ccccc2)CC1 ... 77.1
CN(CC(=O)Nc1ccccc1C(F)(F)F)C(=O)CCl ... 0.506

input: Looking for the measured viability at 48 h, 25 µM of "C=CC(=O)N1CCC(C(=O)N2CCCN(c3nccs3)CC2)CC1" , can you help?
output: 90.1

input: Looking for the measured viability at 48 h, 25 µM of "C=CC(=O)N1CCC(c2nc(C(=O)O)co2)CC1" , can you help?
output: 99.1

input: Looking for the measured viability at 48 h, 25 µM of "CCCCNC(=O)C(C#N)=Cc1ccc(Cl)cc1Cl" , can you help?
output: 69

input: Looking for the measured viability at 48 h, 25 µM of "C=CC(=O)N1CCC(C(=O)N(C)Cc2cc(C(C)(C)C)[nH]n2)CC1" , can you help?
output: 45.6

input: Looking for the measured viability at 48 h, 25 µM of "COc1cccc(NC(=O)C(C#N)=Cc2cccc(Cl)c2Cl)c1" , can you help?
output: 29.8

input: Looking for the measured viability at 48 h, 25 µM of "N#CC(=Cc1ccc(OC(F)F)c(Cl)c1)C(N)=O" , can you help?
output: 106

input: Looking for the measured viability at 48 h, 25 µM of "C=CC(=O)N1CCC(C(=O)Nc2nnc(CC)s2)CC1" , can you help?
output: 98.8

input: Looking for the measured viability at 48 h, 25 µM of "Cc1cccc(NC(=O)[C@@H]2CCCN2C(=O)CCl)n1" , can you help?
output: 0.946

input: Looking for the measured viability at 48 h, 25 µM of CC(Cl)C(=O)NC(C)(C)c1ccc(F)cc1F (stereo not shown) , can you help?
output: 93.5

input: Looking for the measured viability at 48 h, 25 µM of "N#CC(=Cc1cccc2nccn12)C(=O)Nc1ccccc1" , can you help?
output: 125

input: Looking for the measured viability at 48 h, 25 µM of COc1cc(C=C(C#N)C(=O)NC2CCCCC2C)cc(OC)c1O (stereo not shown) , can you help?
output: 95.8

input: Looking for the measured viability at 48 h, 25 µM of "N#CC(=Cc1cccc(O)c1)C(=O)NCc1ccco1" , can you help?
output: 119

input: Looking for the measured viability at 48 h, 25 µM of C=CC(=O)NC(C)(Cn1cccn1)C(N)=O (stereo not shown) , can you help?
output: 113

input: Looking for the measured viability at 48 h, 25 µM of CCN(C(=O)C(C)Cl)c1ccccc1 (stereo not shown) [4-P16, 2-chloro-N-ethyl-N-phenylpropanamide] , can you help?
output: 109

input: Looking for the measured viability at 48 h, 25 µM of "O=C(CCl)Cc1ccc(F)cc1Cl" , can you help?
output: 1.31

input: Looking for the measured viability at 48 h, 25 µM of "C=CC(=O)Nc1cnn2cc(C)cnc12" , can you help?
output: 96.4

input: Looking for the measured viability at 48 h, 25 µM of "O=C(CCl)N1CC2CCC(C1)O2" , can you help?
output: 1.12

input: Looking for the measured viability at 48 h, 25 µM of "N#CC(=Cc1c(F)cccc1F)C(=O)Nc1ccccc1F" , can you help?
output: 103

input: Looking for the measured viability at 48 h, 25 µM of "CC(C)Cn1c(N)c(C(=O)CCl)c(=O)n(C)c1=O" , can you help?
output: 97.1

input: Looking for the measured viability at 48 h, 25 µM of "Cc1cccc(-n2c(C)cc(C(=O)CCl)c2C)c1" , can you help?
output: 0.013

----------
- assay-info: in vitro
- assay-context: human, hek293t cells
recorded-endpoint: viability at 48 h, 25 µM (%)
Answer with a number only, understood to be in %.

C=CC(=O)N(C)Cc1nnc(C2CC2)n1C ... 72.8
COc1ccc(C2=NN(C(=O)CCl)C(c3ccco3)C2)cc1 (stereo not shown) ... 0.0172
C=CC(=O)N(Cc1nccc2c1CCCC2)C1CCCC(OC)C1 (stereo not shown) ... 100
CC(Cl)C(=O)NC1COCc2ccccc21 (stereo not shown) ... 106
COc1ccc(C2=NN(C(=O)CCl)C(c3cccc(F)c3)C2)cc1 (stereo not shown) ... 0.182
C=CC(=O)NCc1conc1C1CCC1 ... 69.5

input: Looking for the measured viability at 48 h, 25 µM of "O=C(CCl)NCC(=O)Nc1ccc(F)c(F)c1" , can you help?
output: 1.48

input: Looking for the measured viability at 48 h, 25 µM of "C=CC(=O)N1CCC(C(=O)N[C@@H]2C[C@H]2c2ccc(Cl)c(F)c2)CC1" , can you help?
output: 78.3

input: Looking for the measured viability at 48 h, 25 µM of "C=CC(=O)N1CCc2c(ncn2-c2ccccc2)C1" , can you help?
output: 70.1

input: Looking for the measured viability at 48 h, 25 µM of CC(CNC(=O)C(C)Cl)Oc1cccc(Cl)c1 (stereo not shown) , can you help?
output: 103

input: Looking for the measured viability at 48 h, 25 µM of O=C(CCl)N1CCCC1c1nc(Cc2ccc(F)cc2)no1 (stereo not shown) , can you help?
output: 0.55

input: Looking for the measured viability at 48 h, 25 µM of CC(Cl)C(=O)NC1CC(C)N(c2ccccc2)C1=O (stereo not shown) , can you help?
output: 112

input: Looking for the measured viability at 48 h, 25 µM of "CN(Cc1ccccc1)S(=O)(=O)c1ccc(NC(=O)CCl)cc1" , can you help?
output: 16.1

input: Looking for the measured viability at 48 h, 25 µM of "N#CC(=Cc1ccc(C(F)(F)F)cc1)C(=O)Nc1ccccc1" , can you help?
output: 93.7

input: Looking for the measured viability at 48 h, 25 µM of "Cc1ccccc1NC(=O)C(C#N)=Cc1c(Cl)nc2ccccn12" , can you help?
output: 134

input: Looking for the measured viability at 48 h, 25 µM of "COc1ccc(-c2nn(-c3ccccc3)cc2C=C(C#N)C(N)=O)cc1" , can you help?
output: 109

input: Looking for the measured viability at 48 h, 25 µM of C=CC(=O)NC1COC(C)C1 (stereo not shown) [1-H17, N-(5-methyloxolan-3-yl)prop-2-enamide] , can you help?
output: 106

input: Looking for the measured viability at 48 h, 25 µM of "N#CC(=Cc1ccc(-c2ccccc2F)o1)C(=O)NCc1ccccc1" , can you help?
output: 92.7

input: Looking for the measured viability at 48 h, 25 µM of "Cc1ccc(NC(=O)N2CCN(C(=O)C=CCN(C)C)CC2)cc1" , can you help?
output: 94.2

input: Looking for the measured viability at 48 h, 25 µM of "O=C(CCl)Cc1ccc(F)c(F)c1" , can you help?
output: 28

input: Looking for the measured viability at 48 h, 25 µM of "C=CC(=O)N1CCC(C(=O)NC(C)(C)CSC)CC1" , can you help?
output: 153

input: Looking for the measured viability at 48 h, 25 µM of COc1cc(C)c(C(C)NC(=O)CCl)cc1OC (stereo not shown) , can you help?
output: 3.89
